Output y for melting point not less than 70 °C; output n otherwise.

Worked set:
molecule: CC(Oc1ccc(Cl)cc1Cl)C(=O)Nc1ccc2nc(SCc3ccccc3)sc2c1 (configuration not stated)
class label: y

molecule: CC(C)[C@@H]1CC[C@H](C)C[C@@H]1OC(=O)c1cccc(C(=O)O)n1
class label: y

molecule: CC(C)=CC(=O)C=C(C)C
class label: n

In: hey, is melting point for this one >= 70 °C? CC(C)CCCC(C)C1CCC2C3CC(Cl)C4(O)CC(=O)CCC4(C)C3CCC12C (configuration not stated)
Out: y

In: Then `Fc1ccc(C(=S)N2CCCCC2)cc1` ?
Out: y

In: Ok, now `C/C(=C\C(=O)c1ccc(F)cc1)c1ccc(F)cc1`
Out: n
